Values were extracted from patent US8378117B2.

target.desc: CB1 receptor (Homo sapiens)
Construct: expressed in transfected cells
test.method.notes: Binding assay for CB1 agonists or inverse agonists (SK-N-MC membranes, [3H]-CP-55,940)
details: Cannabinoid CB1 Receptor Binding IC50, calculated by linear regression from percent inhibition at various test concentrations
pIC50: −log10 of the molar value.
Measured pIC50 accompanies every entry in the list below.
endpoint: pIC50

{"columns": ["compound", "recorded.measurement"],
 "data": [
  ["COC(=O)[C@@H](Cc1ccc(F)cc1)NC(=O)c1n[nH]c2c1CCCC/C2=C\\c1ccc(Cl)cc1 [Cpd 247]", 8.70],
  ["COc1ccc(/C=C2\\CCCCc3c(C(=O)NN4CCCCC4)nn(-c4ccc(Cl)cc4Cl)c32)cc1 [Cpd 217]", 7.22],
  ["O=C(N[C@H]1c2ccccc2C[C@H]1O)c1nn(-c2ccc(Cl)cc2Cl)c2c1CCCC/C2=C\\c1ccc(F)cc1 [Cpd 208]", 7.15],
  ["COC(=O)[C@@H](Cc1ccc(F)cc1)NC(=O)c1nn(-c2ccc(Cl)cc2Cl)c2c1CCCC[C@H]2Cc1cccc(F)c1 [Cpd 78]", 6.40],
  ["CC12CCC(C1)C(C)(C)[C@H]2NC(=O)c1nn(C2CCCCC2)c2c1CCCCC2Cc1cccc(F)c1 (stereo partly shown) [Cpd 44]", 6.70],
  ["CC(NC(=O)c1nn(-c2ccc(Cl)cc2Cl)c2c1CCCC/C2=C\\c1ccc(Cl)cc1)c1ccc(Cl)cc1 (stereo not shown) [Cpd 137]", 8.00],
  ["COc1ccc(/C=C2\\CCCCc3c(C(=O)N[C@H](C)C4CCCCC4)nn(-c4ccc(Cl)cc4Cl)c32)cc1 [Cpd 214]", 8.15]
]}

###

target.desc: CB1 receptor (Homo sapiens)
Construct: expressed in transfected cells
test.method.notes: Binding assay for CB1 agonists or inverse agonists (SK-N-MC membranes, [3H]-CP-55,940)
details: read-out: CB1 receptor binding percent inhibition, test concentration 0.2 μM (footnote 2)
Measured inhibition at 0.2 µM accompanies every entry in the list below.
endpoint: inhibition at 0.2 µM (%)

{"columns": ["compound", "recorded.measurement"],
 "data": [
  ["CC(NC(=O)c1nn(-c2ccc(Cl)cc2Cl)c2c1CCCC/C2=C\\c1ccc(F)cc1)c1ccccn1 (stereo not shown)", 87],
  ["C[C@@H](NC(=O)c1nn(-c2ccc(Cl)cc2Cl)c2c1CCCC/C2=C\\c1ccc(F)cc1)c1ccccn1", 90],
  ["CC[C@@H](NC(=O)c1nn(-c2ccc(Cl)cc2Cl)c2c1CCCC/C2=C\\c1ccc(F)cc1)c1ccccc1", 91],
  ["O=C(c1nn(-c2ccc(Cl)cc2Cl)c2c1CCCC/C2=C\\c1ccc(F)cc1)N1CCCCC1c1ccccn1 (stereo not shown)", 73],
  ["O=C(N[C@@H](CO)Cc1ccccc1)c1nn(-c2nccc(C(F)(F)F)n2)c2c1CCCCC2Cc1cccc(Cl)c1 (stereo partly shown)", 12],
  ["COC(=O)[C@H](Cc1ccc(F)cc1)NC(=O)c1n[nH]c2c1CCCC/C2=C\\c1ccc(Cl)cc1", 85],
  ["O=C(NN1CCOCC1)c1nn(-c2ccccc2Cl)c2c1CCCC/C2=C\\c1ccc(Cl)cc1", 19]
]}

###

target.desc: CB1 receptor (Homo sapiens, UniProt P21554)
Construct: expressed in transfected cells
Sequence (P21554 whole entry): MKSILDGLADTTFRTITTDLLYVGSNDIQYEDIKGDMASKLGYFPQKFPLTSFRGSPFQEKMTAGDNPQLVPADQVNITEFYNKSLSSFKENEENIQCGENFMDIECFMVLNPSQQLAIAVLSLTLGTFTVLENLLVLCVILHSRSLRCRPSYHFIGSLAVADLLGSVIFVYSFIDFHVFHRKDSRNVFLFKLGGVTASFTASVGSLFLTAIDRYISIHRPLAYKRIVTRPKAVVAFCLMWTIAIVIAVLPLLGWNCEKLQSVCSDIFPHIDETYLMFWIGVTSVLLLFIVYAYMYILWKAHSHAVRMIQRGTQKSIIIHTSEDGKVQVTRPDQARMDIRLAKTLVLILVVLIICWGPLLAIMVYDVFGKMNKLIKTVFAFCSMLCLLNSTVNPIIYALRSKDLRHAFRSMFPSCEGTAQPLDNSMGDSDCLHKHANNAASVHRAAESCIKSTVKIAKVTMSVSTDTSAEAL
test.method.notes: Binding assay for CB1 agonists or inverse agonists (SK-N-MC membranes, [3H]-CP-55,940)
details: read-out: CB1 receptor binding percent inhibition, test concentration 1 μM (footnote 1)
Description: The human CB1 and CB2 receptors were stably expressed in SK-N-MC cells transfected with pcDNA3 CB-1 (human) or pcDNA3 CB-2 (human). […] On the day of the assay, the pellet was thawed on ice and diluted in assay buffer (50 mM Tris-HCl, 5 mM MgCl2, 2.5 mM EDTA, 0.5 mg/mL fatty acid free bovine serum aldumin, pH 7.5). […] Non-specific binding was measured in wells containing WIN 55,212 (10 uM). […]
Measured inhibition at 1 µM accompanies every entry in the list below.
endpoint: inhibition at 1 µM

{"columns": ["compound", "target.desc", "endpoint", "recorded.measurement"],
 "data": [
  ["COC(=O)[C@@H](Cc1ccc(O)cc1)NC(=O)c1nn(-c2ccc(Cl)cc2Cl)c2c1CCCCC2Cc1cccc(Cl)c1 (stereo partly drawn) [Cpd 102]", "CB1 receptor (Homo sapiens, UniProt P21554)", "inhibition at 1 µM", "77%"],
  ["O=S(=O)(/C=C/c1nn(-c2ccc(F)cc2F)c2c1CCCCC2Cc1ccc(F)cc1)NN1CCOCC1 (stereo not drawn) [Cpd 127]", "CB1 receptor (Homo sapiens, UniProt P21554)", "inhibition at 1 µM", "36%"],
  ["O=C(N[C@@H]1c2ccccc2C[C@@H]1O)c1nn(-c2ccc(Cl)cc2Cl)c2c1CCCCC2Cc1cccc(Cl)c1 (single isomer, unassigned) [Cpd 112]", "CB1 receptor (Homo sapiens, UniProt P21554)", "inhibition at 1 µM", "49%"],
  ["O=C(NN1CCOCC1)c1nn(-c2ccc(Cl)cc2Cl)c2c1CCCCC2Cc1cccc(Cl)c1 (stereo not drawn) [Cpd 117]", "CB1 receptor (Homo sapiens, UniProt P21554)", "inhibition at 1 µM", "44%"],
  ["O=C(NC12CC3CC(CC(C3)C1)C2)c1nn(C2CCCCC2)c2c1CCCCC2Cc1ccccc1Cl (stereo not drawn) [Cpd 21]", "CB1 receptor (Homo sapiens, UniProt P21554)", "inhibition at 1 µM", "32%"],
  ["C[C@H](NS(=O)(=O)/C=C/c1nn(-c2ccc(F)cc2F)c2c1CCCCC2Cc1cccc(F)c1)C1CCCCC1 (stereo partly drawn) [Cpd 94]", "CB1 receptor (Homo sapiens, UniProt P21554)", "inhibition at 1 µM", "38%"],
  ["C[C@H](NS(=O)(=O)/C=C/c1nn(C)c2c1CCCCC2Cc1ccc(F)cc1)c1ccccc1 (stereo partly drawn) [Cpd 101]", "CB1 receptor (Homo sapiens, UniProt P21554)", "inhibition at 1 µM", "28%"],
  ["O=C(c1nn(C2CCCCC2)c2c1CCCCC2Cc1cccc(F)c1)N1CCN(c2ccccc2)CC1 (stereo not drawn) [Cpd 54]", "CB1 receptor (Homo sapiens, UniProt P21554)", "inhibition at 1 µM", "18%"],
  ["CCOC(=O)[C@@H]1C2CCC(C2)[C@@H]1NC(=O)c1nn(-c2ccc(F)cc2F)c2c1CCCCC2Cc1cccc(F)c1 (stereo partly drawn) [Cpd 111]", "CB1 receptor (Homo sapiens, UniProt P21554)", "inhibition at 1 µM", "62%"],
  ["C[C@H](NS(=O)(=O)/C=C/c1nn(-c2ccc(F)cc2F)c2c1CCCCC2Cc1ccc(F)cc1)c1ccccc1 (stereo partly drawn) [Cpd 107]", "CB1 receptor (Homo sapiens, UniProt P21554)", "inhibition at 1 µM", "72%"],
  ["O=C(NC1CC1)c1nn(-c2ccc(Cl)cc2Cl)c2c1CCCCC2Cc1ccc(Cl)cc1 (stereo not drawn) [Cpd 38]", "CB1 receptor (Homo sapiens, UniProt P21554)", "inhibition at 1 µM", "39%"],
  ["CCOC(=O)[C@@H]1C2CCC(C2)[C@@H]1NC(=O)c1nn(-c2ccc(Cl)cc2Cl)c2c1CCCCC2Cc1cccc(Cl)c1 (stereo partly drawn) [Cpd 109]", "CB1 receptor (Homo sapiens, UniProt P21554)", "inhibition at 1 µM", "72%"],
  ["O=C(NC1C2CC3CC(C2)CC1C3)c1nn(-c2ccc(Cl)cc2Cl)c2c1CCCCC2Cc1ccc(Cl)cc1 (stereo not drawn) [Cpd 18]", "CB1 receptor (Homo sapiens, UniProt P21554)", "inhibition at 1 µM", "3%"],
  ["C[C@H](NC(=O)c1nn(C2CCCCC2)c2c1CCCCC2Cc1cccc(Cl)c1)c1ccccc1 (stereo partly drawn) [Cpd 7]", "CB1 receptor (Homo sapiens, UniProt P21554)", "inhibition at 1 µM", "68%"],
  ["CCOC(=O)[C@H]1C2C=CC(C2)[C@H]1NC(=O)c1nn(-c2ccc(F)cc2F)c2c1CCCCC2Cc1cccc(F)c1 (stereo partly drawn) [Cpd 99]", "CB1 receptor (Homo sapiens, UniProt P21554)", "inhibition at 1 µM", "17%"]
]}

###

target.desc: CB2 receptor (Homo sapiens)
Construct: expressed in transfected cells
Sequence (P34972 whole entry): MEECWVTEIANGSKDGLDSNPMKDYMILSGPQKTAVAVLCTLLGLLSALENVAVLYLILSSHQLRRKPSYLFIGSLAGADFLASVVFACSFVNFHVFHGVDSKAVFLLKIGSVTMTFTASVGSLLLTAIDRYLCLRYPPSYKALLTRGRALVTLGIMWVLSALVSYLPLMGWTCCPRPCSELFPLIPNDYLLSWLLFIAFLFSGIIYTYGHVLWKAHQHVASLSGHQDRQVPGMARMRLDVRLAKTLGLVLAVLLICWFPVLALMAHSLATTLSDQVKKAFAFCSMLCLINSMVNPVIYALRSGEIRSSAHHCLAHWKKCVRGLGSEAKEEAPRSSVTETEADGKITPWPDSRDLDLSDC
test.method.notes: Binding assay for CB2 agonists or inverse agonists (SK-N-MC membranes, [3H]-CP-55,940)
details: read-out: CB2 receptor binding percent inhibition, test concentration 0.2 μM (footnote 2)
Experimental: The human CB1 and CB2 receptors were stably expressed in SK-N-MC cells transfected with pcDNA3 CB-1 (human) or pcDNA3 CB-2 (human). […] On the day of the assay, the pellet was thawed on ice and diluted in assay buffer (50 mM Tris-HCl, 5 mM MgCl2, 2.5 mM EDTA, 0.5 mg/mL fatty acid free bovine serum aldumin, pH 7.5). […] The Unifilter plate was dried, a scintillation cocktail was added to each well and the counts representing binding were quantitated in a TopCount scintillation counter. […]
# inhibition at 0.2 µM >= 40% gives 1, anything below gives 0

{"columns": ["compound", "label.value"],
 "data": [
  ["COc1ccc(/C=C2\\CCCCc3c(C(=O)N[C@@H]4CCc5ccccc54)nn(-c4ccc(Cl)cc4Cl)c32)cc1", 0],
  ["C[C@@H](NC(=O)c1nn(-c2ccc(Cl)cc2Cl)c2c1CCCC/C2=C\\c1ccc(F)cc1)C1CCCCC1", 0],
  ["COC(=O)[C@@H](Cc1ccc(F)cc1)NC(=O)c1n[nH]c2c1CCCC/C2=C\\c1cccc(Cl)c1", 1],
  ["CC(NC(=O)c1nn(-c2ccc(Cl)cc2Cl)c2c1CCCC/C2=C\\c1ccc(F)cc1)c1ccccn1 (stereo not shown)", 0],
  ["COC(=O)[C@H](Cc1ccc(F)cc1)NC(=O)c1nn(C)c2c1CCCC/C2=C\\c1cccc(F)c1", 1],
  ["C[C@H](NC(=O)c1nn(-c2ccc(Cl)cc2Cl)c2c1CCCC/C2=C\\c1ccc(F)cc1)c1ccccc1", 0]
]}
